test system: RIPK2; details: concentration: 1 μM, replicates: in singlicate; n = 1;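 further: KINOMEscan kinase panel screen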
Record Condition met whenever %Inh is at 5% or higher; record Condition not met when lower.

OCCOCCn1ccc2ncnc(Nc3ccc(Oc4cccc(Cl)c4)c(Cl)c3)c21: Condition met
CCc1nc(-c2cccc(C)c2)c(-c2ccnc(NC(=O)c3ccccc3)c2)s1: Condition met
Nc1nc(-c2ccccn2)c(-c2ccnc3ccccc23)s1: Condition met
Fc1cccc(COc2ccc(Nc3ncnc4cc[nH]c34)cc2Cl)c1: Condition met
Clc1ccc(-c2cc(-c3c[nH]nc3-c3ccccn3)ccn2)cc1: Condition met

Could you tell me if the measured %Inh of CNc1nccc(-c2c(-c3ccc(F)cc3)ncn2C2CCN(C)CC2)n1 reaches 5% or more?
Condition met

Could you tell me if the measured %Inh of CC(C)N1CCC(n2cnc(-c3ccc(F)cc3)c2-c2ccnc(N)n2)CC1 reaches 5% or more?
Condition met

Could you tell me if the measured %Inh of CSc1nn2c(=O)cc(N3CCOCC3)nc2n1Cc1cccc(Cl)c1Cl reaches 5% or more?
Condition met

Could you tell me if the measured %Inh of FC(F)(F)c1ccc(-c2nn3ncccc3c2-c2ccnc(Nc3cccc(C(F)(F)F)c3)n2)cc1 reaches 5% or more?
Condition not met

Could you tell me if the measured %Inh of NC(=O)c1sc(-n2cnc3ccccc32)cc1OCc1ccccc1F reaches 5% or more?
Condition met

----------
tested on: NEK6; settings: concentration: 1 μM, replicates: in singlicate; n = 1
Quick reference: %Inh of the listed items.
Report the value in % with no unit label.

C[C@H]1CC[C@@H](C(=O)Nc2ccccc2)CN1c1cc(-c2ccc3c(N)n[nH]c3c2)nc(N)n1 [GSK2283293]: 0
CC(C)(C)c1ccc(-n2cnc3c(N)ncnc32)cc1 [SKF-97263]: 0
Cc1cc(N2CCC(NS(=O)(=O)c3ccc(F)cc3)CC2)nc(Nc2cccc(C#N)c2)n1.O=C(O)C(F)(F)F [GSK1653537]: 0

GET /values?readout=%Inh&system=NEK6&item= COc1ccc(Nc2nccc(N3CCC(NC(=O)Nc4ccc5c(c4)OCO5)C3)n2)cc1 (stereo not shown) [GSK1379745]
7

----------
Quick reference: %Inh of the listed items.
test system: NEK5; conditions: concentration: 1 μM, replicates: in singlicate; n = 1
Report the value in % with no unit label.

# count of solved cases: 5
COc1ccc(Nc2nccc(N3CCC(NC(=O)c4cccc(NC(C)=O)c4)C3)n2)cc1 (stereo not drawn): 25
CCc1nc(-c2cccc(C)c2)c(-c2ccnc(NC(=O)c3ccccc3)c2)s1: 2
CNc1nccc(-c2c(-c3ccc(F)cc3)ncn2CCCN2CCOCC2)n1: 100
Nc1nc(-c2cccnc2)c(-c2ccnc3ccccc23)s1: 0
Cc1cccc(-c2nc(Nc3ccc4[nH]nnc4c3)c3ccccc3n2)n1: 2

Requested read-out: %Inh. Entry: CN1c2ccc(-c3ccc(C(=O)NCCO)cc3)cc2-c2[nH]ncc2S1(=O)=O
0

Requested read-out: %Inh. Entry: FC(F)(F)c1ccc(-c2cc(-c3c[nH]nc3-c3ccccn3)ccn2)cc1
0

Requested read-out: %Inh. Entry: CC(C)(C)OC(=O)NC1CCCN(c2cc(-c3ccc4c(N)n[nH]c4c3)nc(N)n2)C1 (stereo not drawn)
2

Requested read-out: %Inh. Entry: CS(=O)(=O)CCNCc1nc(-c2ccc3ncnc(Nc4ccc(OCc5cccc(F)c5)c(Cl)c4)c3c2)cs1.Cl
6

Recorded values, source paper PMC5540273.
